ASSAYED TARGET: PI3-kinase p110-delta/p85-alpha (Homo sapiens)
Sequence (P27986 whole entry): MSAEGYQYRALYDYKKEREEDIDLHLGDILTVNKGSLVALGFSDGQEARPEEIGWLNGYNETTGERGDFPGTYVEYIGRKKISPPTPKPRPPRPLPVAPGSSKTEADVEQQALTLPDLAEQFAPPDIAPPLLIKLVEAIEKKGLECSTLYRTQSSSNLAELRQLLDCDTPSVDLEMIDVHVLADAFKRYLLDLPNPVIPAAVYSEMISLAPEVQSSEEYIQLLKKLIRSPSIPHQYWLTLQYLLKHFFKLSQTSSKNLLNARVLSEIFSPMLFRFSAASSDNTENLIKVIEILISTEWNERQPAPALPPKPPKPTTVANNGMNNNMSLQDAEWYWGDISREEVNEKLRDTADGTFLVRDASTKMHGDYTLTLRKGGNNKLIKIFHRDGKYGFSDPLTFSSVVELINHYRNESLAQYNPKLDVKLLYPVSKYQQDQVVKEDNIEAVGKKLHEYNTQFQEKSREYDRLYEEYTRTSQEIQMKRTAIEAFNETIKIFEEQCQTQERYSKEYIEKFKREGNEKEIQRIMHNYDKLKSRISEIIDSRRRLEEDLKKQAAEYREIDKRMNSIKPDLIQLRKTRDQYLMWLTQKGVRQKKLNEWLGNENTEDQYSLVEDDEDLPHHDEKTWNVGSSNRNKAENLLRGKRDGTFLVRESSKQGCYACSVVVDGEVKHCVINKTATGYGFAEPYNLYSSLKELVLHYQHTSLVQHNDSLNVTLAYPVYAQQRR
Sequence (O00329 whole entry): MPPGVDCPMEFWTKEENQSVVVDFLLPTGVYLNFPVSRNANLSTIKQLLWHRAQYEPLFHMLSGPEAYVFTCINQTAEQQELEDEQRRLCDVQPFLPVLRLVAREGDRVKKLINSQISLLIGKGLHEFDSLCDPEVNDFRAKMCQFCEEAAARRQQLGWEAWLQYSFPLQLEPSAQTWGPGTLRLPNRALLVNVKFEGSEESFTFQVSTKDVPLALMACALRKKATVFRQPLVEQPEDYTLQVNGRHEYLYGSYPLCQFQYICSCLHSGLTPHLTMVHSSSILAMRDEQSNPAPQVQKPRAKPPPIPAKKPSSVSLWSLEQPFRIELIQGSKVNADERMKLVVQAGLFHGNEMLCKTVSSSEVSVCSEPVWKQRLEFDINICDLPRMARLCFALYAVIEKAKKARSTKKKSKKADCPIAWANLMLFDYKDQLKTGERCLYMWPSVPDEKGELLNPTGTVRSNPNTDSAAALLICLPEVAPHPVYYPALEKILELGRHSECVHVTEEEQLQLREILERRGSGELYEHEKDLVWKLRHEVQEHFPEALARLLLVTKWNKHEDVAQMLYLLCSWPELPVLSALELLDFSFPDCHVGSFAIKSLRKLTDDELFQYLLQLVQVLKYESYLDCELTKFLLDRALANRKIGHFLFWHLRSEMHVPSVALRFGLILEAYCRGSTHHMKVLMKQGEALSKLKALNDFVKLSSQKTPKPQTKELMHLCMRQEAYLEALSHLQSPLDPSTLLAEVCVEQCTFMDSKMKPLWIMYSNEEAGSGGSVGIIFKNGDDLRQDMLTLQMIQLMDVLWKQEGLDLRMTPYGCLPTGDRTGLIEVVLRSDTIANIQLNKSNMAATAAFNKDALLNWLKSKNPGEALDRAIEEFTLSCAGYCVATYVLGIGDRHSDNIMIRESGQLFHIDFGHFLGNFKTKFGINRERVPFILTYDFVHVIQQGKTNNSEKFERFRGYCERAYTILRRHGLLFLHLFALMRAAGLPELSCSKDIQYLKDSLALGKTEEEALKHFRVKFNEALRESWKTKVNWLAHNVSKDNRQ
ASSAY SUMMARY: Inhibition of recombinant human full-length N-terminal His6-tagged p110delta/recombinant human full length p85alpha expressed in baculovirus infected Sf21 insect cells using PIP2 as substrate measured after 1 hr by Alexa633 Tracer-based fluorescence polarization assay
PROPERTY: pIC50
pIC50 field: float, defined as -log10 of concentration (mol/L).

>  <INPUT SMILES>
C[C@H]1COCCN1c1nc(-c2cnc(N)cc2C(F)(F)F)cc(C2(S(C)(=O)=O)CC2)n1

>  <MEASURED NUMBER>
6.71

$$$$

From here, focus on the item given below.
Field pIC50 (PI3-kinase p110-delta/p85-alpha (Homo sapiens)), entry C[C@H]1COCCN1c1nc(-c2cnc(N)cc2F)cc(C2(S(C)(=O)=O)CC2)n1 : 7.34
